Test system: MCF7 breast
PROCEDURE SUMMARY: NCI tumour cell line growth inhibition, 48 h

COMPOUND | TARGET DESC | TGI
O=C(O)c1cscc1Cc1cccs1 | MCF7 breast | > 100 µM
CC1(C)CCC[C@@]2(C)C1C(=O)[C@@H]1O[C@]1(C)[C@@H]2CO (stereo partly specified) | MCF7 breast | > 100 µM
Clc1ccc(C=NC23CC4CC(CC(C4)C2)C3)cc1Cl | MCF7 breast | > 10 µM
COC(=O)OCc1ccc2c(c1)C(=O)c1c-2n(CCCBr)c(=O)c2cc([N+](=O)[O-])ccc12 | MCF7 breast | > 100 µM
O=C(O)C1(Cc2ccc3c(c2)CCC3)Cc2ccccc2C1=O (stereo unspecified) | MCF7 breast | > 100 µM
O=C1CC(c2ccc(Cl)cc2)C2(C(=O)NC(=O)NC2=O)C(c2ccc(Cl)cc2)C1 (stereo unspecified) | MCF7 breast | > 75 µM

---

Test system: LOX IMVI melanoma
PROCEDURE SUMMARY: NCI tumour cell line growth inhibition, 48 h
Entries annotated with measured TGI
READOUT: TGI (µM)

COMPOUND | INEQUALITY SIGN | NUMBER
CC1(C)CCCOc2cccc(c2)OCCCC(C)(C)C1=O | > | 100
O=C(O)c1cc(O)c2c(c1)C([C@@H]1c3cccc(O)c3C(=O)c3c(O)cc(C(=O)O)cc31)c1cccc(O)c1C2=O (some centres not stated) | = | 31.9
Nc1ccc2ccc(NS(=O)(=O)N3CCCCC3)cc2c1 | > | 100
CCSC1=N/C(=C/c2ccccc2O)C(=O)N1 | > | 100
CCCCCC(O)(CCCCC)CCCCCCCCC1=C(O)c2[nH]c(=O)ccc2C(=O)C1=O | = | 24
O=C(Nc1cccc(O)c1)c1cccc(NC2=C(Cl)C(=O)N(Cc3ccccc3)C2=O)c1 | = | 23.1
O=c1c2ccccc2nc(-c2ccccc2)n1O | > | 100
CC(=O)c1cc2c(c3ccsc13)-c1ccccc1CC2 | > | 100
COc1ccc(C(=O)N(C(=O)N2CCN(c3ccccc3)CC2)S(=O)(=O)c2ccccc2)cc1 | = | 38
COc1ccc(C2c3cc4c(cc3OC(O)(CO)C2C(=O)O)OCO4)cc1 (configuration not stated) (tested in a mixture with another compound) | = | 30.1
CC(C)(C)[Si](C)(C)OCC1C=CC(n2cnc3c(N)ncnc32)O1 (configuration not stated) | > | 64
COC(=O)C[C@H](COCc1ccccc1)NC(=O)C[C@H](COCc1ccccc1)NC(=O)OC(C)(C)C | > | 100

---

Known TGI of a selection of compounds
Tested on: COLO 205 colon
PROCEDURE SUMMARY: NCI tumour cell line growth inhibition, 48 h
READOUT: TGI

COMPOUND | TARGET DESC | READOUT | RESULT
COc1ccc(CC(NC(=O)[C@H](C)NC(=O)CN2CCOCC2)C(=O)N[C@@H](Cc2ccccc2)C(=O)[C@@]2(C)CO2)cc1 (stereo not given in full) | COLO 205 colon | TGI | 0.933 µM
O=S(=O)(O)c1cc(N=[N+]([O-])c2cc(S(=O)(=O)O)c3ccccc3c2)cc2ccccc12 | COLO 205 colon | TGI | > 100 µM
CCN(CC)c1ccc2cc(C(=O)Nc3nc(C45CC6CC(CC(C6)C4)C5)cs3)c(=O)oc2c1 | COLO 205 colon | TGI | > 100 µM
Nc1ccc2ccc(NS(=O)(=O)N3CCCCC3)cc2c1 | COLO 205 colon | TGI | 1.65 µM
CCCCCOC(=O)c1cc2cc(CCl)ccc2oc1=O | COLO 205 colon | TGI | 16.3 µM
COC(=O)c1ccccc1C1CN=NC12Cc1cc(C)c(C)cc1C2=O (stereo not given) | COLO 205 colon | TGI | > 100 µM
COc1cc(NCC2COc3c(ccc(OC)c3OC)C2=O)c([N+](=O)[O-])cc1OC (stereo not given) | COLO 205 colon | TGI | > 100 µM
CC(=O)[C-](C(C)=O)c1ccccc1.CC(=O)[C-](C(C)=O)c1ccccc1.CC[O-].CC[O-].[Ti+4] | COLO 205 colon | TGI | > 100 µM
O=C(O)Cn1c(=O)[nH]c(=O)c2[nH]cnc21 | COLO 205 colon | TGI | > 100 µM
CCOc1ccc2ccc3cccnc3c2n1 | COLO 205 colon | TGI | > 100 µM
